conditions: siRNA; further: test system not given here
HELM strings list units from the 5' end as sugar, base in round brackets, then linkage (d deoxyribose, r ribose, m 2'-O-methyl, p phosphodiester). Strings are as the collection lists them, not checked against the first reports. ss, as = sense and antisense strand; [lna] = locked nucleic acid (LNA)

{"substance": "RNA1{m(A)p.r(A)p.m(C)p.r(A)p.m(G)p.r(C)p.m(C)p.r(U)p.m(U)p.r(A)p.m(C)p.r(C)p.m(C)p.r(C)p.m(G)p.r(A)p.m(U)p.r(U)p.m(C)p.r(T)p.r(T)}|RNA2{r(G)p.m(A)p.m(A)p.r(U)p.r(C)p.r(G)p.r(G)p.r(G)p.r(G)p.r(U)p.m(A)p.m(A)p.r(G)p.r(G)p.r(C)p.r(U)p.r(G)p.r(U)p.r(U)p.r(T)p.r(T)}$$$RNA1{StrandType:ss}|RNA2{StrandType:as}$", "output-unit": "%", "target mRNA knockdown": 32}
{"substance": "RNA1{r(U)p.r(C)p.r(C)p.m(U)p.r(A)p.r(G)p.r(C)p.m(U)p.r(G)p.r(U)p.r(C)p.r(U)p.m(U)p.r(G)p.r(U)p.r(C)p.r(C)p.r(C)p.r(U)p.r(T)p.r(T)}|RNA2{r(A)p.r(G)p.r(G)p.r(G)p.r(A)p.m(C)p.r(A)p.r(A)p.r(G)p.r(A)p.m(C)p.r(A)p.r(G)p.r(C)p.m(U)p.r(A)p.r(G)p.r(G)p.r(A)p.r(T)p.r(T)}$$$RNA1{StrandType:ss}|RNA2{StrandType:as}$", "output-unit": "%", "target mRNA knockdown": 68}
{"substance": "RNA1{r(A)p.r(U)p.r(C)p.r(U)p.r(G)p.r(A)p.r(A)p.r(G)p.r(A)p.r(A)p.r(G)p.r(G)p.r(A)p.r(G)p.r(A)p.r(A)p.r(A)p.r(A)p.r(A)p.[lna](T)p.[lna](T)}|RNA2{r(U)p.r(U)p.r(U)p.r(U)p.r(U)p.r(C)p.r(U)p.r(C)p.r(C)p.r(U)p.r(U)p.r(C)p.r(U)p.r(U)p.r(C)p.r(A)p.r(G)p.r(A)p.r(U)p.[lna](T)p.[lna](T)}$$$RNA1{StrandType:ss}|RNA2{StrandType:as}$", "output-unit": "%", "target mRNA knockdown": 93}
